- experiment.notes: Observed clearance in male Sprague-Dawley rat at 7 mg/kg,iv measured upto 8 hrs by UPLC-MS/MS analysis
- Format: ADME, organism-based
- test.conditions: in vivo
quantity.measured: clearance
The reply must contain the numeric value and, after it, the unit.

query: Tell me measured clearance for "O=C(NO)c1ccc(CNC(=O)c2cc(-c3ccc(F)cc3)cn3ccnc23)cc1" please.
result: 134 mL/min/kg

###

- experiment.notes: Tmax in male Sprague-Dawley rat at 7 mg/kg,iv measured upto 8 hrs by UPLC-MS/MS analysis
- Assay type: ADME, organism-based
- test.conditions: in vivo
quantity.measured: Tmax (min)
Give the quantity in min, number only.

query: Tell me measured Tmax for "O=C(NO)c1ccc(CNC(=O)c2cc(-c3ccc(F)cc3)cn3ccnc23)cc1" please.
result: 5
